Data provenance: patent US20100331297A1

Readings of EC50 for the listed compounds
tested_target: ΔF508 CFTR (Homo sapiens, UniProt P13569, DEL508-508)
Sequence (P13569 with tags, fused parts or gaps DEL508-508): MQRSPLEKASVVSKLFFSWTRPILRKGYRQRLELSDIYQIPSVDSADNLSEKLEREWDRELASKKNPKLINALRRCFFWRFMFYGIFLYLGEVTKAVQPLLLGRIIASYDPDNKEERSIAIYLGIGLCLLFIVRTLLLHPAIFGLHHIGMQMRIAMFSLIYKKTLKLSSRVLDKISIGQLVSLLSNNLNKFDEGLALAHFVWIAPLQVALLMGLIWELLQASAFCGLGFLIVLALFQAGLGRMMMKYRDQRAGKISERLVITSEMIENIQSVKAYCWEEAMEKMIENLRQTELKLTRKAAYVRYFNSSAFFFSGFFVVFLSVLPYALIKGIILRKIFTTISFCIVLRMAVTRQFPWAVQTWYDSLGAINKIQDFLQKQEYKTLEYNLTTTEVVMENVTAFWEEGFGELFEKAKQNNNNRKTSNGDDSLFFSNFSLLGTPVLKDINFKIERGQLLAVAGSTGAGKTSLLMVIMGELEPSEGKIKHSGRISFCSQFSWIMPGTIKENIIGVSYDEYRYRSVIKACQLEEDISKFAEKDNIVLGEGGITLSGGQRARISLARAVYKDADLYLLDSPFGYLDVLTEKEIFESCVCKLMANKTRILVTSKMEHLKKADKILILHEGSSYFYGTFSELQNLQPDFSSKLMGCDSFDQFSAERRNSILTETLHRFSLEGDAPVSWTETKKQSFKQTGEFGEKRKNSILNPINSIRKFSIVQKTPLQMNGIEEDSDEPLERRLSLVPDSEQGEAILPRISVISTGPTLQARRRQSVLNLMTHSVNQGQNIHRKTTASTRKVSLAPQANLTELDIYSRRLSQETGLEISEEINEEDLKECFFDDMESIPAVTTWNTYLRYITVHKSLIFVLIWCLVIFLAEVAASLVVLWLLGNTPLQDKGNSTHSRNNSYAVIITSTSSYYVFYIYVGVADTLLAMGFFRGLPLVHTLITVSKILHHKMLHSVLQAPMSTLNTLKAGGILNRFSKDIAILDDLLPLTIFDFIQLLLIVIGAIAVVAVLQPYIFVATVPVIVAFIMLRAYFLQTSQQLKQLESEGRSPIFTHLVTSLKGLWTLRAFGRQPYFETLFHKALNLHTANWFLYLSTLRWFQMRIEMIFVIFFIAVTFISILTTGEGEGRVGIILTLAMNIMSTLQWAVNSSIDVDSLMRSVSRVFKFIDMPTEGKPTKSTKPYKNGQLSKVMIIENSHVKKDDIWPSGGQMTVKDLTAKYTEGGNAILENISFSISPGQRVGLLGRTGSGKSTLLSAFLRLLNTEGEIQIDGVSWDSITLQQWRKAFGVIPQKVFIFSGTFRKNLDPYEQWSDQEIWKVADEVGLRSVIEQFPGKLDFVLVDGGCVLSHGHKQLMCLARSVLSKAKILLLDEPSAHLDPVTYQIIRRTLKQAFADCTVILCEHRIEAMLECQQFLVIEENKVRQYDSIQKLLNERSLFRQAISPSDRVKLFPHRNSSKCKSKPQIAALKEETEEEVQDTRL
procedure_summary: Corrector activity, YFP halide (iodide) quenching assay in FRT cells expressing ΔF508 CFTR
Assay type: cell-based
Design: expressed in transfected cells; host or cells: Fischer rat thyroid (FRT) cells
stated_conditions: FRT cells ΔF508 CFTR/YFP, 24 hours with compound at 37° C., forskolin and genistein; read-out: Corrector EC50

These recorded examples may help you get a feel for the data.
- compound: "CCNC(=O)N1CC(n2nc(Sc3cccc(Cl)c3)c3c(N)ncnc32)C1 [Compound No. 346]"
  obs_value: "> 15 µM"
- compound: "CC(C)(C)n1nc(Oc2cccc3cccnc23)c2c(N)ncnc21 [compound 195]"
  obs_value: "5 to 10 µM"
- compound: "CCC(=O)Nc1ncnc2c1c(-c1ccc(Cl)cc1)cn2CC [compound 271]"
  obs_value: "< 2 µM"
- compound: "Nc1ncnc2c1c(Oc1cccc(Cl)c1)nn2C1CNC1 [compound 414]"
  obs_value: "> 15 µM"
- compound: "CCn1nc2cccc(N)c2c1-c1ccc(C)cc1 [compound 80]"
  obs_value: "> 15 µM"
- compound: "CC(C)(C)n1nc(Oc2cccc3ccccc23)c2c(N)ncnc21 [compound 198]"
  obs_value: "> 15 µM"
- compound: "Nc1ncnc2c1c(Sc1ccccc1)nn2C1CNC1 [compound 416]"
  obs_value: "> 15 µM"
- compound: "CC(C)(C1CC1)n1cc(-c2ccc(Cl)cc2)c2c(N)ncnc21 [compound 351]"
  obs_value: "2 to 5 µM"
- compound: "CCNC(=O)n1nc(-c2ccc(Cl)cc2)c2c(N)ncnc21 [Compound No. 213]"
  obs_value: "5 to 10 µM"
- compound: "Nc1ncnc2c1c(-c1ccc(Cl)cc1)nn2C1CCNCC1 [compound 412]"
  obs_value: "> 15 µM"

Lookup: Recorded EC50 for Nc1ncnc2c1c(Cc1cccc3ccccc13)nn2C1CCC1 [compound 74] , please?
Found: > 15 µM

Lookup: Recorded EC50 for CC(=O)N1CCC(n2nc(-c3ccc(Cl)cc3)c3c(N)ncnc32)CC1 [compound 302] , please?
Found: < 2 µM

Lookup: Recorded EC50 for O=[N+]([O-])c1ccc(Nc2ncnc3[nH]nc(-c4ccc(Cl)cc4)c23)nc1 [compound 293] , please?
Found: > 15 µM

Lookup: Recorded EC50 for CS(=O)(=O)n1nc(-c2ccc(Cl)cc2)c2c(N)ncnc21 [compound 203] , please?
Found: > 15 µM

###

System: ypt1^ts cells
procedure_summary: Rescue of growth of ypt1^ts mutant yeast (OD600)
Format: cell-based
stated_conditions: Saccharomyces cerevisiae, read-out: Ypt1-ts MRC (Minimum Rescue Concentration), ypt1^ts cells, 35° C. and 37° C., OD600; multiple results separated by a comma
observed_property: minimal effective concentration

These recorded examples may help you get a feel for the data.
- test_smiles: "CCc1nc(N)c2c(-c3ccc(Cl)cc3)nn(C(C)(C)C)c2n1"
  tested_target: "ypt1^ts cells"
  minimal effective concentration: "> 50 µM"
- test_smiles: "CC(C)(C)n1nc(-c2ccc(C#N)cc2)c2c(N)ncnc21"
  tested_target: "ypt1^ts cells"
  minimal effective concentration: "> 50 µM"
- test_smiles: "Cc1cc(-c2nn(C(C)(C)C)c3ncnc(N)c23)ccc1F"
  tested_target: "ypt1^ts cells"
  minimal effective concentration: "> 50 µM"

Lookup: Form: Entry = `CC(C)(C)n1nc(Cc2cccc(F)c2)c2c(N)ncnc21` | System = ypt1^ts cells | minimal effective concentration = ____
Found: 10 to 50 µM

Lookup: Form: Entry = `CC(C)c1ccc(-c2nn(C(C)(C)C)c3ncnc(N)c23)cc1` | System = ypt1^ts cells | minimal effective concentration = ____
Found: > 50 µM
